assay: Apparent Permeability across apical to basolateral side in human Caco2 cells at 1 to 10 uM measured at 30 to 90 mins by LC/MS analysis; assay type: ADME, cell-based; conditions: Caco-2
REPORTED_PROPERTY: Papp A→B at up to 10 µM (×10⁻⁶ cm/s)

{"COMPOUND": "CCOC(=O)c1cc(C#N)c(N2CC(NC(=O)NS(=O)(=O)c3ccccc3)C2)nc1C", "REPORTED_PROPERTY": "Papp A→B at up to 10 µM", "UNIT_OF_MEASURE": "×10⁻⁶ cm/s", "RESULT_VALUE": 0.41}
{"COMPOUND": "CCOC(=O)c1cc(C#N)c(N2CCN(C(=O)NS(=O)(=O)c3ccccc3)CC2)nc1C(F)(F)F", "REPORTED_PROPERTY": "Papp A→B at up to 10 µM", "UNIT_OF_MEASURE": "×10⁻⁶ cm/s", "RESULT_VALUE": 0.6}

(I) CCOC(=O)c1cc(C#N)c(N2CCN(C(=O)NS(=O)(=O)c3ccc(Cl)s3)C(CCC(=O)O)C2)nc1C(F)(F)F (racemic)
(II) CCOC(=O)c1cnc(N2CCN(C(=O)NS(=O)(=O)c3ccccc3)CC2)c(Cl)c1
(III) O=C(c1cnc(N2CCN(C(=O)NS(=O)(=O)c3ccc(Cl)s3)CC2)c(Cl)c1)C1CC1
(IV) CCOC(=O)c1cc(C#N)c(N2CC(NC(=O)NS(=O)(=O)Cc3ccccc3)C2)nc1C
Query: # rank by Papp A→B at up to 10 µM, ascending (min first) Record the ranking as a list of labels in the requested order.
Result: III, I, II, IV

(A) CCOC(=O)c1cc(C#N)c(N2CC3CN(C(=O)NS(=O)(=O)c4ccccc4)CC3C2)nc1C (stereo not given)
(B) CCOC(=O)c1cc(C#N)c(N2CCN(C(=O)NS(=O)(=O)c3ccc(C)cc3)CC2)nc1C(F)(F)F
Query: Between the two listed entries A and B , which has its Papp A→B at up to 10 µM at the higher number? Use the label to indicate which entry you chose.
Result: A

(A) CCOC(=O)c1cc(C#N)c(N2CCN(C(=O)NS(=O)(=O)c3ccccc3)CC2)nc1C
(B) CCCC(=O)c1cnc(N2CCN(C(=O)NS(=O)(=O)c3ccc(Cl)s3)CC2)c(Cl)c1
Query: Could you check which of A and B has a smaller value for Papp A→B at up to 10 µM? Which one? Tell me its label.
Result: B
(B: 0.16 ×10⁻⁶ cm/s, A: 0.3 ×10⁻⁶ cm/s)
